system: K562; experiment: NCI tumour cell line growth inhibition, 48 h
The source made the active and inactive calls. Rule as the data show it: active = GI50 up to about 1.1 µM and inactive = higher.
propertyMeasured: GI50

For record CCOC(=O)c1cnc2cc3cccccc3n2c1=O the listed GI50 is > 100 µM (inactive)

// recorded GI50 for CC(C)(C)[C@H]1CC[C@@](O)(c2ccccc2)CC1.CC(C)(C)[C@H]1CC[C@](O)(c2ccccc2)CC1 : 15.2 µM (inactive)

Input Cn1ccnc1CCc1c(Cl)cccc1Cl . Output GI50: > 100 µM (inactive)

For O=C1c2cc3c(cc2NC(c2ccccc2F)C1O)OCO3 (centres undefined) the compound record lists GI50 as 6.85 µM (inactive)

Entry CC(C)(C)OC(=O)[C@@H]1CCC(=O)N1C1(c2ccccc2)c2ccccc2-c2ccccc21 ; GI50 = 41 µM (inactive)

Entry under test: COc1ccc2c(c1)CCC1=C/C(=N\NC(N)=O)CCC12C (centres undefined) . Its GI50 was > 10 µM (inactive)

Documented GI50 of O=C(/N=N/c1ccccc1Cl)NNc1ccccc1Cl : 27.8 µM (inactive)

The compound C=CC1(C)CCC2C(=CCC3C2(C)CC(O)C(O)C3(C)COC2OC(CO)C(O)C(O)C2O)C1 (centres undefined) showed GI50 equal to > 100 µM (inactive)

Looking up O=C(c1ccncc1)n1nc(-c2ccccc2)c(/N=N/c2ccccc2[N+](=O)[O-])c1-c1ccccc1 , I see its GI50 listed as 36.3 µM (inactive)

====

tested on: SNB-75; assay: NCI tumour cell line growth inhibition, 48 h
The source made the active and inactive calls. Rule as the data show it: active = GI50 up to about 1.1 µM and inactive = higher.
Assign a class; possible classes are 1 (yes) for active, 0 (no) for inactive

Could you check what this test reported for O=C(N/S(=N/S(=O)(=O)c1ccc(Br)cc1)C(Cl)(Cl)Cl)c1ccccc1 (stereo not given) ?
0 (no)

Give the logged outcome of this assay for the following compound: O=C1C(Br)=Cc2c(Cl)sc(Cl)c21
0 (no)

Entry O=S(=O)(O)c1cc(S(=O)(=O)O)c2cc(/N=N/c3ccc(/N=N/c4ccc(/C=C/c5ccc(/N=[N+](/[O-])c6ccc(/C=C/c7ccc(/N=N/c8ccc(/N=N/c9ccc%10cc(S(=O)(=O)O)cc(S(=O)(=O)O)c%10c9)cc8)cc7S(=O)(=O)O)c(S(=O)(=O)O)c6)cc5S(=O)(=O)O)c(S(=O)(=O)O)c4)cc3)ccc2c1 : call = ?
0 (no)

How did this test come out for CC1=C(C#N)C(C#N)(C#N)C(NN(C)C)C1 (stereo not given) ?
0 (no)

Which result was noted for this compound in the test: C[C@H]1CC(=O)[C@@]2(O)C#C/C=C\C#C[C@@H]3Nc4c(cc(O)c5c4C(=O)c4ccccc4C5=O)[C@]24O[C@]314
1 (yes)

====

test system: DU-145; assay: NCI tumour cell line growth inhibition, 48 h
The source made the active and inactive calls. No stated cut-off is given here; in the data, active = GI50 up to about 1.1 µM and inactive = higher.
propertyMeasured: GI50

Sure, the documented GI50 for COC(=O)C1=COC(OC2OC(CO)C(O)C(O)C2O)C2C3CN4CCc5c([nH]c6ccccc56)C4(CC12)O3 (stereo not drawn) is > 100 µM (inactive)

Recorded result, O=C(c1ccccc1)C1N=NCC1c1ccc([N+](=O)[O-])cc1 (stereo not drawn) , GI50: 18.4 µM (inactive)

The compound O=C(Nc1ccccc1)N1CCNC1=S showed GI50 equal to > 100 µM (inactive)

====

tested on: HT-29; assay: NCI tumour cell line growth inhibition, 48 h
Active and inactive are the calls of the source. No stated cut-off is given here; in the data, active = GI50 up to about 1.1 µM and inactive = higher.
propertyMeasured: GI50

Entry COc1ccc2oc(C(=O)O)c3c2c1CCC3 — recorded GI50 = > 100 µM (inactive)

Value of GI50 reported for the compound Cc1cccc(NC(=S)NNC(=O)c2cc(-c3ccccc3)nc3ccccc23)c1 is 34.7 µM (inactive)

The recorded GI50 for c1ccc(C(OCCN2CC3CCC(C2)N3)c2ccccc2)cc1 is 31.6 µM (inactive)

# GI50 of Nc1ncnc2c1cnn2COCC(O)CO (stereo not drawn) = > 100 µM (inactive)

Kindly note the recorded GI50 for COc1ccc(/N=N/C(=N\c2ccc(F)cc2)c2ccc(N(CCC#N)CCC#N)cc2)cc1 , which is 39.5 µM (inactive)

Just so you know, measured GI50 for Cc1c(-c2ccccc2)c(C#N)c2nnn(-c3ccc([N+](=O)[O-])cc3)c(=O)n12 came out at 8.99 µM (inactive)

Entry CC1=C(C(=O)Nc2cc(=O)n(C)c(=O)n2C)C(c2cccc([N+](=O)[O-])c2)C(C(=O)Nc2cc(=O)n(C)c(=O)n2C)=C(C)N1 ; GI50 = > 100 µM (inactive)

Entry CCN(CCO)CC1CCCC2CCCCC21 (stereo not drawn) , GI50 reported as > 100 µM (inactive)

The compound O=C1Nc2ccccc2/C1=N/N=C1NCCCCN1 showed GI50 equal to > 100 µM (inactive)

Sure, the documented GI50 for CC(Nc1cc(Cl)cc(Cl)c1)c1ccncc1 (stereo not drawn) is 27.7 µM (inactive)

For record CCCC(C)C[C@@H](C)CC(C)/C=C(\C)c1oc(=O)c(C)c(O)c1C.CC[C@@H](C)C[C@@H](C)C[C@@H](C)/C=C(\C)c1oc(=O)c(C)c(O)c1C (stereo partly drawn) the listed GI50 is 13.9 µM (inactive)

The reported value for CCc1nc(N)nc(N)c1-c1ccc2nn(-c3ccccc3)[n+]([O-])c2c1 in terms of GI50 is 1.26 µM (inactive)

// O=CN1CCN(C(=O)c2ccc(Cl)c(Cl)c2)C1=S : GI50 value = 19.4 µM (inactive)

# compound c1ccc2c(c1)CN1CCCC1CN2 (stereo not drawn) ; its GI50 = > 100 µM (inactive)

Lab book: GI50 of O=C(C/C(=N/O)c1cc(-c2ccccc2)no1)c1ccccc1 noted as > 100 µM (inactive)

Value of GI50 reported for the compound CC(=O)Oc1ccc2c(C)cc(=O)oc2c1 is > 100 µM (inactive)

For reference, reported GI50 for C1=Cc2nc1c(-c1ccccc1)c1ccc([n-]1)c(-c1ccccc1)c1nc(c(-c3ccccc3)c3ccc([n-]3)c2-c2ccccc2)C=C1.[Zn+2] stands at > 100 µM (inactive)

The compound NS(=O)(=O)c1nnc(NC(=O)Nc2ccc(Cl)c(Cl)c2)s1 showed GI50 equal to 16.7 µM (inactive)

====

tested on: A549; assay: NCI tumour cell line growth inhibition, 48 h
Activity calls are given as the source filed them. No stated cut-off is given here; in the data, active = GI50 up to about 1.1 µM and inactive = higher.
Please provide measured GI50 for the entries that follow.

GET /value?item= Cc1ccc(NC(=O)C(=O)CC(=O)C2CCOC2=O)c(C)c1 (stereo not drawn) &field=GI50 returns > 100 µM (inactive)

Form: compound = Cc1ccc(NC(=O)c2cc(S(=O)(=O)Nc3nc4cccnc4[nH]3)c(SSc3cc(Cl)c(C(=O)Nc4ccc(C)cc4)cc3S(=O)(=O)Nc3nc4cccnc4[nH]3)cc2Cl)cc1 ; GI50 = > 100 µM (inactive)

Short answer for O=S(=O)(O)c1cc(S(=O)(=O)O)c2cc(/N=N/c3ccc(/N=N/c4ccc(/C=C/c5ccc(/N=[N+](/[O-])c6ccc(/C=C/c7ccc(/N=N/c8ccc(/N=N/c9ccc%10cc(S(=O)(=O)O)cc(S(=O)(=O)O)c%10c9)cc8)cc7S(=O)(=O)O)c(S(=O)(=O)O)c6)cc5S(=O)(=O)O)c(S(=O)(=O)O)c4)cc3)ccc2c1 : GI50 was > 65.3 µM (inactive)

====

test system: SNB-75; assay: NCI tumour cell line growth inhibition, 48 h
Calls of active or inactive are those of the source. No stated cut-off is given here; in the data, active = GI50 up to about 1.1 µM and inactive = higher.
propertyMeasured: GI50

What the record says about C=C1C2CC(OC(C)=O)C3(C)C(c4ccoc4)OC(=O)[C@@H](O)[C@]13OC1C[C@H](OC(C)=O)C(C)(C)[C@H](C(O)C(=O)OC)[C@]12C (stereo partly specified) : GI50 is 29.9 µM (inactive)

# GI50 (molecule: CC1(C)[C@H]2Cc3cc4nc5ccccn5c4cc3[C@@H]1C2 ) is 13.6 µM (inactive)

response.value for COc1cc2c(cc1OCCCCOc1cc3nc(C)nc(Cl)c3cc1OC)N=C[C@@H]1CCCN1C2=O (field: GI50) = 1.46 µM (inactive)

CC1(C)[C@H]2CC[C@](C)(C2)[C@]1(S)Cc1ccccn1 yielded GI50 of 23.9 µM (inactive)

Briefly, GI50 measured for O=C(NC(=S)Nc1ccc(Br)cc1)c1ccc2c(c1)Sc1ccccc1S2 : 15 µM (inactive)

Entry CCCCCCCCCCCCCC[C@@H](O)[C@H]1CC[C@H]([C@H]2CC[C@H]([C@H](O)CCCCCC[C@@H](O)CC3=C[C@H](C)OC3=O)O2)O1 ; GI50 = > 25 µM (inactive)

Form field GI50, entry COc1cc(-c2nc(N)c(C#N)c3c2CCS(=O)(=O)c2ccc(C)cc2-3)cc(OC)c1OC : 16.7 µM (inactive)

Sample CCCCc1c(OC)cc(O)c2c1C(=O)c1[nH]c(C(=O)O)c(O)c(=O)c1C2=O ; GI50 observed: 3.26 µM (inactive)

Briefly, GI50 measured for CC(C)C1CC=NN1C(=O)OC(C)(C)C (stereo unspecified) : > 100 µM (inactive)

The molecule listed as O=NN(CCCl)C(=O)N[C@H]1CC[C@H](CC(=O)O)CC1 has a reported GI50 of 50.4 µM (inactive)

Record N#CC(=S)Nc1cccc(Cl)c1 . Reported GI50: 23.9 µM (inactive)

Taken from ChEMBL document CHEMBL1201862.
